# System: OVCAR-8
# experimentSummary: NCI tumour cell line growth inhibition, 48 h
The source made the active and inactive calls. Rule as the data show it: active = GI50 up to about 1.1 µM and inactive = higher. Square brackets hold non-standard residues; d marks the D form. Peptide text beside a SMILES is read from it. * marks the point of attachment. AllylGly = C=CC[CH](N)C(=O)O; Boc = CC(C)(C)OC(=O)*; OtBu = CC(C)(C)O*
Measured GI50 values are reported for all entries that follow.
recordedEndpoint: GI50

1) CC(=O)N1CCc2c([nH]c3ccc(Br)cc23)C1c1ccccc1 (centres undefined)	> 5.07 µM (inactive)
2) O=C(NC(=O)c1cn(CCN(CCO)C(=O)NCCCCCCNC(=O)N(CCO)CCn2cc(C(=O)NC(=O)OCc3ccccc3)c(=O)[nH]c2=O)c(=O)[nH]c1=O)OCc1ccccc1	> 100 µM (inactive)
3) CN1CCN(Cc2cc3c(nn2)-c2ccccc2C3=O)CC1	95.7 µM (inactive)
4) CC(=O)Nc1ccc(Cl)c(Cl)c1	> 100 µM (inactive)
5) C=CCC(NC(=O)C(CC(=O)OC(C)(C)C)NC(=O)OC(C)(C)C)C(=O)OC (centres undefined) (Boc-Asp(OtBu)-[AllylGly]-OMe; configuration not given here)	16 µM (inactive)
6) CN(C)Cc1cc(C(=O)/C=C/c2ccc(/C=C/C(=O)c3cc(CN(C)C)c(O)c(CN(C)C)c3)cc2)cc(CN(C)C)c1O	49.3 µM (inactive)
7) COc1ccc(/C=C2\CCC(CNc3ccc(Br)cc3)C2=O)cc1 (centres undefined)	> 100 µM (inactive)
8) COc1cc(OC)c2c(c1OC)OCC(Cc1ccc(O)cc1)C2=O (centres undefined)	> 25 µM (inactive)
9) CC1CC[P+](c2ccccc2)(c2ccccc2)c2c1ccc1ccccc21 (centres undefined)	2.44 µM (inactive)
